Reference for the values: patent US20240116985A1

# target.desc: T1, B-cat-Halo (beta-catenin HaloTag fusion expressed in HEK293 cells) (UniProt P35222 1-781)
# T1 sequence (looked up): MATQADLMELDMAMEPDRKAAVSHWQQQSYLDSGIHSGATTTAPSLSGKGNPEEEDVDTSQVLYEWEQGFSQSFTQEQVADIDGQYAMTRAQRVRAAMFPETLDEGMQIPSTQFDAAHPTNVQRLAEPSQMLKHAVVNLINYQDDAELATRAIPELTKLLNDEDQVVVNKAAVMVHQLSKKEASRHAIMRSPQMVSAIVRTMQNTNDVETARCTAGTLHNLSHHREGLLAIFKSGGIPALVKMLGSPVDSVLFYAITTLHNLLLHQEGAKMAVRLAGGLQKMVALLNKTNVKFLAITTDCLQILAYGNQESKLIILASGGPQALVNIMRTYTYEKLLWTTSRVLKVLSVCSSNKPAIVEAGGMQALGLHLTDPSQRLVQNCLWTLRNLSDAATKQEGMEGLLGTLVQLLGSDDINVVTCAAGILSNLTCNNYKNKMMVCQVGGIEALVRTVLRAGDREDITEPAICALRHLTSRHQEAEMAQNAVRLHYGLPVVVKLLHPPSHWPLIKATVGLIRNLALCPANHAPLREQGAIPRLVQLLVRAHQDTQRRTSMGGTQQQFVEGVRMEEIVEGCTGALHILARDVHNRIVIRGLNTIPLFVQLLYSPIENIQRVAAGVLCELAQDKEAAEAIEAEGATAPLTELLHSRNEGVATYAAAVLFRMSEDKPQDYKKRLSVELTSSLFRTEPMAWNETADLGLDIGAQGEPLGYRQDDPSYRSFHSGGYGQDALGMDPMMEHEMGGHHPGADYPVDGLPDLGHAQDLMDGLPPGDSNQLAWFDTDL
# assay.method.text: cell-based or functional assay
Starred links: 1 amine or outer side, 2 acyl side, 3 side chain; linkers in the order of their positions; H or OH if unused. Positions of bridges follow the written chain, without caps; N, C: chain ends. Non-standard residues stand in square brackets, D forms with d. Primed or numbered codes have the meaning given here. PyrS2″ = (S)-3-amino-1-((pent-4-en-1-yloxy)carbonyl)pyrrolidine-3-carboxylic acid (stapling residue), C=CCCCOC(=O)N1CC[C@@](N[*:1])(C(=O)[*:2])C1; B5(4) = 2,2-bis(4-pentenyl)glycine = 2-amino-2-(pent-4-en-1-yl)hept-6-enoic acid (stitching residue), C=CCCCC(CCCC=C)(N[*:1])C(=O)[*:2]; (4Pippip)GlnR″ = (S)-5-([1,4'-bipiperidin]-1'-yl)-2-amino-5-oxopentanoic acid, O=C(CC[C@H](N[*:1])C(=O)[*:2])N1CCC(N2CCCCC2)CC1; (AcPpz)GlnR″ = (S)-5-(4-acetylpiperazin-1-yl)-2-amino-5-oxopentanoic acid, CC(=O)N1CCN(C(=O)CC[C@H](N[*:1])C(=O)[*:2])CC1; (Morph)GlnR″ = [Morph]GlnR, (S)-2-amino-5-morpholino-5-oxopentanoic acid, O=C(CC[C@H](N[*:1])C(=O)[*:2])N1CCOCC1; Phe(3-COOH) = N[C@@H](Cc1cccc(C(=O)O)c1)C(=O)O; Phe(2-CF3) = N[C@@H](Cc1ccccc1C(F)(F)F)C(=O)O; Bta = N[C@@H](Cc1csc2ccccc12)C(=O)O; αAllylPro = C=CC[C@@]1(C(=O)O)CCCN1; tBuAla = CC(C)(C)C[C@H](N)C(=O)O; 3Thi = N[C@@H](Cc1ccsc1)C(=O)O; R5 = C=CCCC[C@@](C)(N)C(=O)O; Nle = CCCC[C@H](N)C(=O)O; Abu = CC[C@H](N)C(=O)O; Aib = CC(C)(N)C(=O)O
# if measured NanoBRET Abs IC50 < 20 µM: fulfilled  # else: not fulfilled

>>> group("Ac-[αAllylPro]D[tBuAla][B5(4)]D[Phe(3-COOH)][Aib]AF[Abu][PyrS2″][3Thi][Bta][(4Pippip)GlnR″]-NH2 (staple 1-4, 4-11) [I-2560]")
"fulfilled"

q: Please state whether NanoBRET Abs IC50 is below 20 µM for Ac-[αAllylPro]D[tBuAla][B5(4)]D[Phe(3-COOH)][Aib]AF[Nle][PyrS2″][3Thi][Bta][(Morph)GlnR″]-NH2 (staple 1-4, 4-11) [I-2553]
a: fulfilled

q: Consider the binder Ac-[αAllylPro]D[tBuAla][B5(4)]D[Phe(3-COOH)][Aib]AF[Abu][PyrS2″][3Thi][Bta][(AcPpz)GlnR″]-NH2 (staple 1-4, 4-11) [I-2561] . Is its NanoBRET Abs IC50 strictly less than 20 µM?
a: fulfilled

q: I'd appreciate it if you could check whether Ac-[R5]D[tBuAla][B5(4)]D[Phe(3-COOH)]AAFL[PyrS2″][Phe(2-CF3)][Bta]Q-NH2 (staple 1-4, 4-11; not fully specified; printed as Ac-R5-Asp-Npg-B5-Asp-3COOHF-Ala-Ala-Phe-Leu-PyrS2-2F3MeF-BztA-Gln-NH2) [I-2565] has NanoBRET Abs IC50 smaller than 20 µM.
a: not fulfilled
